Data provenance is patent US20220195015A1.

molecular target: SARS-CoV-2 spike protein receptor binding domain (RBD) (SARS-CoV-2, UniProt P0DTC2 319-539); experiment: ELISA on plate-coated RBD
metric: EC50 (ng/mL)

binder | assayResult
C047 (antibody, V domains shown) VH: QVQLQESGPGLVKPSETLSLTCTVSGGSISSTTYYWDWIRQSPGKGLEWIGSIFYTGITYYSPSLKSRVTISVDTSKNQFSLRLNSMTAADTAVYYCARRLRQLWFGPWFDPWGQGTLVTVSS VL: QSALTQPPSASGSPGQSVTISCTGTRSDVGDYNYVSWYQQHPDKAPKLIIYEVTKRPSGVPDRFSGSKSGNTASLTVSGLQAEDEADYYCSSYAGSNNVMFGGGTKLTVL | 11.1
C709 (antibody, V domains shown) VH: QVQLVQSGAEVRKPGASVKVSCMASGYTFNTYDINWVRQGTGQGLEWMGWMNPNSGNTGHAQKFQGRVAMTVNTSMNTAYMELSSLRSEDTAVYYCARGADMLNVAVGADFDYWGQGTLVTVSS VL: QSALTQPPSASGSPGQSVTISCTGTSSDVGGYNFVSWFQQHPGKAPKLMIYEVSKRPSGVPDRFSGSKSANTASLTVSGLQAEDEADYFCSSYAGSNNWVFGGGTKLTVL | 7.56
C568 (antibody, V domains shown) VH: QVQLVQSGAEVKKPGASVKVSCTASGYTFSSYYIHWVRQAPGQGLEWMGIINPGAGSTSYAQKFQGRVAMTTDTSTRTVYMELSSLRSDDTAVYYCARDEAFLPSAIFVGDYWGQGTLVTVSS VL: DIQMTQSPSSLSASVGDRVTITCRASQGIRNDLGWYQQKPGKAPKRLIYAASNLQSGVPSRFSGSGSGTEFTLTISSLQPEDFATYYCLQHSTYPHTWTFGQGTKVEIK | 5.99
C573 (antibody, V domains shown) VH: QVQLQESGPGLVKPSGTLSLTCAVSGGSISTVNWWSWVRQPPGKGLEWIGEIHHSGNTNHNPSLRSRVTISVDKSKNQFSLKLRSVTAADTAVYYCARDGGRPGDAFDLWGQGTMVTVSS VL: QSALTQPASVSGSPGQSITISCTGTSSDVGGYNYVSWYQQHPGKVPKVMIYDVSNRPSGISNRFSGSKSGNTASLTISGLQAEDEADYYCNSYRSNSTRVFGTGTKVTV | 2.2
C578 (antibody, V domains shown) VH: QVQLVESGGGVVQPGRSLRLSCAASGFTFSSSGMHWVRQAPGKGLEWVAIISYDGSNKYYADSVKGRFTISRDNSKNTLSLQMNSLRAEDTAVYYCAKDPLPFRDFFYYYMDVWGKGTTVTVSS VL: QSALTQPASVSGSPGQSITISCTGTSSDVGGYNYVSWYQQHPGKAPKLMIYDVSNRPSGVSNRFSGSKSGNTASLTISGLQAEDEADYYCSSYTSSSTLGVFGTGTKVTVL | 1.08
